Kindly supply the reported Activity values for the records listed here.
Tested on: Plasmodium yoelii nigeriensis
Assay Text: Antimalarial activity as reduced parasitaemia against Plasmodium yoelii nigeriensis MDR infected Swiss mice (Mus musculus) at 100 mg/kg peroral dose for 4 days
Assay type: functional
Design: scale not given: the % may be the effect or the level left
Test Settings: route oral
Answers are plain numbers, in %.

// worked examples, Activity included
[[record]]
smi = "O=C(Nc1ccc(Cl)c(C(F)(F)F)c1)Nc1ccc2ncnc(Nc3cccc(F)c3)c2c1"
measurement = 22

[[record]]
smi = "O=C(Nc1ccc(Cl)c(C(F)(F)F)c1)Nc1ccc2ncnc(Nc3cccc(C(F)(F)F)c3)c2c1"
measurement = 10

[[record]]
smi = "COc1ccc(Nc2ncnc3ccc(NC(=O)Nc4ccc(Cl)c(Cl)c4)cc23)cc1OC"
measurement = 41

[[record]]
smi = "COc1ccc(Nc2ncnc3ccc(NC(=O)Nc4cc(Cl)cc(Cl)c4)cc23)cc1OC"
measurement = 23.7


Now for the compound whose Activity we want.
Dear colleague, I am looking for the recorded Activity of the following compound: COc1ccc(Nc2ncnc3ccc(NC(=O)Nc4ccc(Br)cc4)cc23)cc1OC 26.3
